# Substrate: O=[N+]([O-])c1ccc(OP(=O)(O)O)cc1
# measurementDescription: chromogenic phosphatase assay, A400
# Format: biochemical, Thermosynechococcus vestitus
# protocolConditions: 50 mM Tris-HCl pH 8.3, 50 mM NaCl, 1 mM DTT, 2 mM MnCl2, 30 °C, pNPP 0.1-10 mM
Criterion: kcat meeting or surpassing 1 s⁻¹. Met: Criterion met. Not met: Criterion not met.

For orientation, consider the following solved cases.
tPphA (Thermosynechococcus vestitus BP-1; R13N) (protein) MDVAGLTDCGLINKSNQDAFYIDEKHQRFFIVADGMGGHAGGEEASRLAVDHIRQYLETHLEDLQHDPVTLLRQAFLAANHAIVEQQRQNSARADMGTTAVVILLDEKGDRAWCAHVGDSRIYRWRKDQLQQITSDHTWIAQAVQLGSLTIEQARQHPWRHVLSQCLGREDLSQIDIQPIDLEPGDRLLLCSDGLTEELTDDVISIYLSEPNVQKAAAALVDAAKTHGGRDNVTVVVISV :: Criterion not met
tPphA (Thermosynechococcus vestitus BP-1; R13A) (protein) MDVAGLTDCGLIAKSNQDAFYIDEKHQRFFIVADGMGGHAGGEEASRLAVDHIRQYLETHLEDLQHDPVTLLRQAFLAANHAIVEQQRQNSARADMGTTAVVILLDEKGDRAWCAHVGDSRIYRWRKDQLQQITSDHTWIAQAVQLGSLTIEQARQHPWRHVLSQCLGREDLSQIDIQPIDLEPGDRLLLCSDGLTEELTDDVISIYLSEPNVQKAAAALVDAAKTHGGRDNVTVVVISV :: Criterion met

Query: Textbook exercise: given the entry tPphA (Thermosynechococcus vestitus BP-1; R13G) (protein) MDVAGLTDCGLIGKSNQDAFYIDEKHQRFFIVADGMGGHAGGEEASRLAVDHIRQYLETHLEDLQHDPVTLLRQAFLAANHAIVEQQRQNSARADMGTTAVVILLDEKGDRAWCAHVGDSRIYRWRKDQLQQITSDHTWIAQAVQLGSLTIEQARQHPWRHVLSQCLGREDLSQIDIQPIDLEPGDRLLLCSDGLTEELTDDVISIYLSEPNVQKAAAALVDAAKTHGGRDNVTVVVISV , state whether its kcat is greater than or equal to 1 s⁻¹.
Reply: Criterion met

Query: Textbook exercise: given the entry tPphA (Thermosynechococcus vestitus BP-1; R13C) (protein) MDVAGLTDCGLICKSNQDAFYIDEKHQRFFIVADGMGGHAGGEEASRLAVDHIRQYLETHLEDLQHDPVTLLRQAFLAANHAIVEQQRQNSARADMGTTAVVILLDEKGDRAWCAHVGDSRIYRWRKDQLQQITSDHTWIAQAVQLGSLTIEQARQHPWRHVLSQCLGREDLSQIDIQPIDLEPGDRLLLCSDGLTEELTDDVISIYLSEPNVQKAAAALVDAAKTHGGRDNVTVVVISV , state whether its kcat is greater than or equal to 1 s⁻¹.
Reply: Criterion not met

Source of measurements: paper PMC3375153
